Target: CDK2/cyclinA(h) (Homo sapiens (Human), UniProt P24941)
Experiment: IC50 profiler radiometric kinase assay (Millipore)
Assay type: biochemical
Conditions: CMGC
pIC50: −log10 of the molar value.
Overview of reported pIC50 across a group of compounds:

[[record]]
molecularstring = "CCN(CC)CCOc1ccc(Nc2cc3c(cn2)cc(-c2ccccc2)c(=O)n3CC)nc1"
measvalue = "< 6.00"


Measured pIC50, CCn1c(=O)c(-c2ccccc2)cc2cnc(Nc3ncc(CCN(C)C)s3)cc21 : < 6.00

* * *

Biological target: EGFR(h) (Homo sapiens (Human), UniProt P00533)
Sequence (P00533 25-1210): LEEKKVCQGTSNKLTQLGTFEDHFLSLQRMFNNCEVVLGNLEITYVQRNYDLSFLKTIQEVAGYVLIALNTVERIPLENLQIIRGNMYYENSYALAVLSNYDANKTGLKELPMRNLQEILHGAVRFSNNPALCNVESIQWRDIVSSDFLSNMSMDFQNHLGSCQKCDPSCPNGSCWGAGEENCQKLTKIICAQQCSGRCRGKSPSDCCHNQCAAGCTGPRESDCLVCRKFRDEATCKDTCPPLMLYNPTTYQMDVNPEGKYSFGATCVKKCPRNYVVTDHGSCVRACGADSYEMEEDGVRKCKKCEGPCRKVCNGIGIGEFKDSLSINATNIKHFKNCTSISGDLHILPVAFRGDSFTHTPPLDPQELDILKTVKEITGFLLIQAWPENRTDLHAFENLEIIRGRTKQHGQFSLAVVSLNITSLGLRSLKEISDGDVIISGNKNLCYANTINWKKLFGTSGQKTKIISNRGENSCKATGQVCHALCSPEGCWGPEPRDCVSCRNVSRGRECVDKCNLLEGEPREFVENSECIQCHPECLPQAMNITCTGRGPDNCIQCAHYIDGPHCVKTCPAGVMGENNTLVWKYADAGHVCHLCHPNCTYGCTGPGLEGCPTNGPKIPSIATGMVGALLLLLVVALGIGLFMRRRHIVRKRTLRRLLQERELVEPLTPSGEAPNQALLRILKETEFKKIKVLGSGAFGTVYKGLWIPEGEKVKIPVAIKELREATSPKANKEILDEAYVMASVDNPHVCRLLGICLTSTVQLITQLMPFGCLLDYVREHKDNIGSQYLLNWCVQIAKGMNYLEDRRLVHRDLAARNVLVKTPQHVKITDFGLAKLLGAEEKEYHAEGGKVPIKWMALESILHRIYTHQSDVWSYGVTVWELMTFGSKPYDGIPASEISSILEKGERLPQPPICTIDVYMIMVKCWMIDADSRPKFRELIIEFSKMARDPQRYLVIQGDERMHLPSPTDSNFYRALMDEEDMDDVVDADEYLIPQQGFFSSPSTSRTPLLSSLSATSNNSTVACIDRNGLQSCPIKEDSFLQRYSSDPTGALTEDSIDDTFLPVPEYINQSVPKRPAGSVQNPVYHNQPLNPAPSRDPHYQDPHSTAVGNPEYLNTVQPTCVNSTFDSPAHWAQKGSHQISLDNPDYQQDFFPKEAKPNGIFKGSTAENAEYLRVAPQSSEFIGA
pIC50: −log10 of the molar value.
endpointName: pIC50

[[record]]
compound = "CCn1c(=O)c(-c2ccccc2)cc2cnc(Nc3ncc(CCN(C)C)s3)cc21 [Compound 2]"
measvalue = "< 6.00"


Attention now shifts to the item below.
// assay EGFR(h) (Homo sapiens (Human), UniProt P00533), entry CCN(CC)CCOc1ccc(Nc2cc3c(cn2)cc(-c2ccccc2)c(=O)n3CC)nc1 [Compound 1] , pIC50 value = 6.00 to 6.30

// provenance: patent US9714247B2
